Target: Glucocorticoid receptor (Homo sapiens) (UniProt P04150)
Sequence (P04150 whole entry, looked up): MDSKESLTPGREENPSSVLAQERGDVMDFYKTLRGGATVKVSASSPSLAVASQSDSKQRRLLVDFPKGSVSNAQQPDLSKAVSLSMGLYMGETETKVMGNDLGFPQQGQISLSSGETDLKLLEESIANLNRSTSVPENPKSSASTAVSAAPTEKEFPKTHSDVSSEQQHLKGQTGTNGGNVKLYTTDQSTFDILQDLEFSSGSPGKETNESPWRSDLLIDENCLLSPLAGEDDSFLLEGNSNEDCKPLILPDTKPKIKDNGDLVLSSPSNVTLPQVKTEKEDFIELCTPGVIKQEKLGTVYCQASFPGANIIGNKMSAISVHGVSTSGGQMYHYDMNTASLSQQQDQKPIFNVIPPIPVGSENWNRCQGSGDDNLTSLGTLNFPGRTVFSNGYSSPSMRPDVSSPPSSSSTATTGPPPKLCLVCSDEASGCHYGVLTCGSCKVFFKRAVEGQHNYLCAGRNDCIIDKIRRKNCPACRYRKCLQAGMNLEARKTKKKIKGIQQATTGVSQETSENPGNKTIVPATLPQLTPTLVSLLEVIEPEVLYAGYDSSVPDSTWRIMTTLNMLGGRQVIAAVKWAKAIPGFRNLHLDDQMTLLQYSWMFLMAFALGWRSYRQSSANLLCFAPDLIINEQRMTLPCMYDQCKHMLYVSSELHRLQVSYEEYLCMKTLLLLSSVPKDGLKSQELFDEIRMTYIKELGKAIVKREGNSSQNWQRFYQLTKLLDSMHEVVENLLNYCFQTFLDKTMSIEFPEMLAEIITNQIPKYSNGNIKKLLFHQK
Assay: GR-GFP Redistribution (AID 450); note: potency is the fitted concentration of half-maximal effect
Settings: U2OS GR-GFP nuclear translocation, laser cytometry, 2 h
Activity calls are given as the source filed them.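 Rule for the calls: active = compounds whose dose series gives a full or clear partial fitted curve of increased nuclear translocation; inconclusive = weak partial curve or effect only at the top dose; inactive = no dose-dependent translocation response.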
Below, each of the molecules is paired with its reported Potency value.

Look over these answered cases.
Molecule	Potency
O=C(O)CS(=O)(=O)C(c1ccccc1)c1ccccc1	> 46 µM (inactive)
C[C@]12CC[C@H](O)C[C@@H]1CC[C@H]1[C@H]2CC[C@]2(C)[C@H](C(=O)CO)CC[C@@H]12	> 46 µM (inactive)
CC(C)[C@@H](Br)C(=O)NCC(=O)O	> 46 µM (inactive)
CN1C[C@H](C(=O)N[C@@]2(C)O[C@@]3(O)[C@H]4CCCN4C(=O)[C@@H](Cc4ccccc4)N3C2=O)C=C2c3cccc4[nH]cc(c34)C[C@@H]21	> 46 µM (inactive)
O=P(O)(OP(=O)(O)c1ccccc1)c1ccccc1 (tested in a mixture with another compound)	> 46 µM (inactive)

# input molecule: `O=C(C[C@H](c1ccccc1)c1c(O)c2ccccc2oc1=O)c1ccccc1` ; wanted: its Potency
> 46 µM (inactive)

# input molecule: `C[C@@]12CC[C@H]3[C@@H](CC[C@@H]4C[C@H](O)CC[C@]43C)[C@H]1CC[C@H]2O` ; wanted: its Potency
> 46 µM (inactive)

# input molecule: `O=C(O)[C@@H](O)[C@@H](O)[C@@H]1[O][Sb][O][C@@H]1CO` ; wanted: its Potency
> 46 µM (inactive)
